test system: NCI/ADR-RES ovarian; test: NCI-60 one-dose screen, 48 h (100 = growth as untreated, 0 = no growth, -100 = all killed); details: 10 µM unless noted
This is part of a sample that, as a whole, favours compounds with a hit. Of some 83,000 tested, about 20% had one in any assay. The source made the active and inactive calls. Rule for the calls: active = growth percent below 10; inactive = the rest.
Kindly supply the reported growth values for the records listed here.

Lab note: measured growth of COC(C(=O)[C@@H](O)[C@@H](C)O)[C@@H]1Cc2cc3cc(O[C@H]4C[C@@H](O[C@H]5C[C@@H](O)[C@H](O)C(C)O5)[C@H](O)C(C)O4)c(C)c(O)c3c(O)c2C(=O)[C@H]1O[C@H]1C[C@@H](O[C@H]2C[C@@H](O[C@H]3C[C@@H](O)[C@@H](O)C(C)O3)[C@@H](O)C(C)O2)[C@H](O)C(C)O1 (stereo partly specified) was 85.5% (inactive)

Entry `CNCc1cccnc1` — recorded growth = 104% (inactive)

Item: CN[C@@]1(c2ccccc2Cl)CCCC[C@@H]1NCC1CCCO1 (stereo partly specified) | growth: 101% (inactive)

growth for CC[C@H](C)[C@H](NC(=O)C12C3C4C1C1C2C3C41NC(C)=O)C(=O)N(C)[C@H](C[C@@H](OC(C)=O)c1nc(C(=O)N[C@@H](Cc2ccccc2)C[C@H](C)C(=O)OC)cs1)C(C)C (stereo partly specified) is 89.7% (inactive)

// recorded growth for `O=C1NC(=O)C(=Cc2cccn2CCCCCn2c3ccccc3c(=O)c3ccccc32)C(=O)N1` : 99.5% (inactive)

So for `CCCCCC1(CCBr)C(=O)NC(=O)NC1=O` , the logged growth turned out to be 121% (inactive)

# growth (compound: `CC1=C(O)[C@@](C)(CCCCC[C@H](C)CCCCc2ccc(O)cc2)OOC1=O` ) is 88.5% (inactive)

Noted for `CC(=O)ONc1ccc([N+](=O)[O-])c(C(F)(F)F)c1` : its growth reads 101% (inactive)

Record COc1ccc(C2=CC(c3ccc(OC)c(OC)c3)c3c(c4ccccc4oc3=O)O2)cc1OC (stereo unspecified) . Reported growth: 29% (inactive)

growth recorded for this compound, CC12CCC(O)CC1=CCC1C2CCC2(C)C(O)CCC12 (stereo unspecified) , is 110% (inactive)

Measured growth, COC(=O)C1OC(Oc2ccc(N(CCCl)CCCl)cc2)C(OC(C)=O)C(OC(C)=O)C1OC(C)=O (stereo unspecified) : 92.9% (inactive)

---

system: A549/ATCC NSCLC; assay: NCI-60 one-dose screen, 48 h (100 = growth as untreated, 0 = no growth, -100 = all killed); conditions: 10 µM unless noted
About 83,000 compounds went through this panel and 20% of them were active in at least one assay; those are over-represented in the sample as a whole. Activity calls are given as the source filed them. The calls were made as follows: active = growth percent below 10; inactive = the rest.
observationType: growth

For `COc1cccc(/C=C/[N+](=O)[O-])c1` the compound record lists growth as 61.2% (inactive)

Recorded result, `C[Se]C(=O)c1ccccc1OC(C)=O` , growth: 59.2% (inactive)

Value of growth reported for the compound `COc1cc2c(cc1OCc1ccccc1)C(CC(C)C)=[N+](C)CC2` is 61% (inactive)

Short answer for `O=C(N/N=C\c1ccc(N(CCCl)CCCl)cc1Cl)c1cccnc1` : growth was 60.4% (inactive)

---

tested on: UO-31 renal; test: NCI-60 one-dose screen, 48 h (100 = growth as untreated, 0 = no growth, -100 = all killed); settings: 10 µM unless noted
About 83,000 compounds went through this panel and 20% of them were active in at least one assay; those are over-represented in the sample as a whole.
growth below 50% gives 0 (no); growth at or above it gives 1 (yes).

IN: # check: growth of `c1ccc(CSC(c2ccccc2)c2ccccc2)cc1` is greater than or equal to 50%
OUT: 1 (yes)

IN: Could you please find out whether `COc1ccc(/C=C\c2cc(OC)c(OC)c(OC)c2)c(NS(=O)(=O)c2ccc(F)cc2)c1O` has growth that meets 50% or exceeds it?
OUT: 0 (no)

IN: Has `c1cc2c(c3c1CCNC3)OCO2` a recorded growth greater than or equal to 50%?
OUT: 1 (yes)

IN: Is reported growth greater than or equal to 50% here: `Cc1ccc(S(=O)(=O)C(Cl)(Cl)Cl)cc1`
OUT: 1 (yes)

IN: // inclusive: growth at least 50%? input: `COC(=O)[C@@H](C)C[C@H](Cc1ccccc1)NC(=O)c1nc([C@@H](C[C@H](C(C)C)N(C)C(=O)[C@@H](NC(=O)[C@H]2CC(=O)CCN2C)C(C)C)OC(C)=O)sc1C(C)C`
OUT: 0 (no)

---

test system: IGROV1 ovarian; assay: NCI-60 one-dose screen, 48 h; details: 10 µM unless noted
The panel holds about 83,000 compounds, 20% with a hit somewhere; the sample as a whole holds those more often. Activity calls are given as the source filed them. The calls were made as follows: active = growth percent below 10; inactive = the rest.
// one of active, inactive, no free text

IN: What outcome does the record of this test show for `COc1ccc(/C=C\c2cc(OC)c(OC)c(OC)c2)cc1NC(=O)/C=C/c1cc(OC)c(OC)c(OC)c1` ?
OUT: inactive

IN: State the result this test recorded for `CC[CH2][Sn]([Cl])([Cl])[CH2]CC` .
OUT: inactive

IN: Which result was noted for this compound in the test: `Nc1c(F)cc(-c2nc3cc(F)ccc3[se]2)cc1F`
OUT: inactive

IN: Call for entry `COP(=S)(N1CC1)N1CC1` :
OUT: inactive

IN: Write down the call the test reported for this compound. Item: `CCOC(=O)[C@@H](C)C[C@H](Cc1ccccc1)NC(=O)c1csc([C@@H](C[C@H](C(C)C)N(C)C(=O)[C@H](CCC(C)C)NC(=O)[C@H]2CCCCN2C)OC(C)=O)n1`
OUT: inactive

IN: Recorded call for `COc1cccc2c1c(C(=O)C(=O)Nc1cc(C)no1)cn2Cc1ccc(F)cc1` ?
OUT: inactive

IN: Could you please tell me the result logged for `ClC1=C(Cl)C(Cl)(C2(Cl)C(Cl)=C(Cl)C(Cl)=C2Cl)C(Cl)=C1Cl` in this assay?
OUT: active

IN: How was `COc1ccc2c(c1)c(-c1nc(-c3cn(C)c4ncccc34)cs1)cn2CCN1CCOCC1` classified in this test?
OUT: inactive

IN: Hello, I am checking results. What call was entered for C[S+]1C=Cc2ccccc2C1c1ccc(Cl)cc1 (stereo unspecified) ?
OUT: active

IN: Which outcome was assigned to O=C(CC1(O)C(=O)N(Cc2ccccc2)c2ccccc21)c1ccc(C(=O)NCC2CCC3(CC2)OOC2(CCCCC2)OO3)cc1 (stereo unspecified) in this test?
OUT: active

IN: Record lookup: outcome of this test for `O=C1NC(=O)C(=Cc2cn(CCCCCCn3c4ccccc4c(=O)c4ccccc43)c3ccccc23)C(=O)N1` ?
OUT: inactive

---

Consider the following molecules; for each one, report its growth.
system: HOP-62 NSCLC; experiment: NCI-60 one-dose screen, 48 h (100 = growth as untreated, 0 = no growth, -100 = all killed); conditions: 10 µM unless noted
The panel holds about 83,000 compounds, 20% with a hit somewhere; the sample as a whole holds those more often. Activity calls are given as the source filed them. How the source made its calls: active means growth percent below 10; inactive means the rest.

Kindly note the recorded growth for `CC(C)(N)Cc1ccccc1` , which is 118% (inactive)

Entry `Cc1sc2c(c1C)C(c1ccc(Cl)cc1)=N[C@@H](CC(=O)OC(C)(C)C)c1nnc(C)n1-2` , growth reported as 36.8% (inactive)

// growth value for `O=P(N1CC1)(N1CC1)N1CCc2ccccc21` : 105% (inactive)

Query `CC[C@H](C)[C@H](NC(=O)NC(C)(C)C)C(=O)N(C)[C@H](C[C@@H](OC(C)=O)c1nc(C(=O)N[C@@H](Cc2ccccc2)C[C@H](C)C(=O)OC)cs1)C(C)C` yields growth of 12.4% (inactive)

Value of growth reported for the molecule `COc1ccc(C2=N[C@@H](Cc3ccccc3)C(=O)Nc3ccsc32)cc1` is 66% (inactive)

Record `CC[C@H](C)[C@H](NC(=O)c1cccn1C)C(=O)N(C)[C@H](C[C@@H](OC(C)=O)c1nc(C(=O)N[C@@H](Cc2ccccc2)C[C@H](C)C(=O)OC)cs1)C(C)C` , field growth: 10.1% (inactive)

---

test system: SR leukemia; assay: NCI-60 one-dose screen, 48 h (100 = growth as untreated, 0 = no growth, -100 = all killed); details: 10 µM unless noted
This is part of a sample that, as a whole, favours compounds with a hit. Of some 83,000 tested, about 20% had one in any assay.
observationType: growth (%)
Express your answer in %, writing the number without its unit.

For reference, reported growth for C[C@@H]1O[C@@H](O[C@H]2C[C@@H](O)[C@]3(CO)C4C(CC[C@]3(O)C2)[C@@]2(O)CC[C@H](C3=CC(=O)OC3)[C@@]2(C)C[C@H]4O)[C@H](O)[C@H](O)[C@H]1O (stereo partly drawn) stands at -31.2

The molecule identified as `COc1cc2c(cc1OCCCCCn1c(-c3ccco3)nc3ccccc31)N=C[C@@H]1CCCN1C2=O` registered its growth at 0.702

Please fill in: growth reported for `CCc1ccccc1[C@@H]1C[C@]2(C)CCO[C@@H]2OO1` = 102

For reference, reported growth for `Clc1cccc(NCOOC2(OOCNc3cccc(Cl)c3)CCCCC2)c1` stands at -41.4

Sure, the documented growth for Cc1cccc(N2CCN(C(C)C#N)CC2)c1 (stereo not drawn) is 98.2

So for `O=C(c1ccccc1O)c1[nH]c(Cl)c(Cl)c1-n1c(C(=O)c2ccccc2O)cc(Cl)c1Cl` , the logged growth turned out to be 8.12

For this molecule ( `CNC(=O)Oc1ccc(C(C)(C)C)cc1OC(=O)NC` ), measured growth is 87.9

Briefly, growth measured for `C/C(=C\c1ccn(-c2ccc(N)cc2)n1)[C@@H]1C[C@@H]2O[C@]2(C)CCC[C@H](C)[C@H](O)[C@@H](C)C(=O)C(C)(C)[C@@H](O)CC(=O)O1` : 19

GET /value?item= `ClC1=C(Cl)C(Cl)(C2(Cl)C(Cl)=C(Cl)C(Cl)=C2Cl)C(Cl)=C1Cl` &field=growth returns -25.3

Sample `O=C([O][Hg][c]1ccccc1)c1ccccc1` ; growth observed: -7.13

So for `Cc1cc(NC(=O)NCc2ccc(N3C(N)=NC(N)=NC3(C)C)cc2)ccc1S(=O)(=O)F` , the logged growth turned out to be 4.98

According to the records, this molecule `CN1C(=O)C(=Cc2cn(Cc3ccccc3)c3ccccc23)C(=O)N(C)C1=O` displays growth of 68.6

// growth lookup, molecule = `COC(=O)[C@@]1(O)C[C@H]2O[C@]1(C)n1c3ccccc3c3c4c(c5c6ccccc6n2c5c31)C(=O)NC4` , result: -18.3
